Source of measurements: patent US20090281099A1

Target Under Test: hα2C receptor (Homo sapiens, UniProt P18825)
Construct: expressed in transfected cells
Sequence (P18825 1-462): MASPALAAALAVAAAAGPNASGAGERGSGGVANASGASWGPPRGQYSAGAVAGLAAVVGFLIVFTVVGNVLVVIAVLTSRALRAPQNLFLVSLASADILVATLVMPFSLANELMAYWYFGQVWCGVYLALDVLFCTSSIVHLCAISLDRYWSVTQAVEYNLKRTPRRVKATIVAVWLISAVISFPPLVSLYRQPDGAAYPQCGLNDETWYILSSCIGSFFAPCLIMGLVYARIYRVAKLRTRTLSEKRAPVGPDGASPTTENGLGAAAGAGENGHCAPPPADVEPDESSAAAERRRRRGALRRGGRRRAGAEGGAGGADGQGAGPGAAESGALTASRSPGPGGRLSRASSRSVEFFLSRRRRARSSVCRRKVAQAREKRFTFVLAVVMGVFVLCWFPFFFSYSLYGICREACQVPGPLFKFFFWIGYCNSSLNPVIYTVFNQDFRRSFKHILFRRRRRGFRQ
Experiment: Radioligand binding experiment for α2C-adrenoceptor ([3H]-raulwolscine, CHO cell membranes)
Condition Set: [3H]raulwolscine 1 nM, membranes of CHO cells transfected with human α2C receptor; read-out: h-α2C pIC50 (converted)
Quantity: IC50 (nM)

Example results:
O=c1c(N2CCN(CCOc3ccc(F)cc3)CC2)nccn1CCOCc1ccccc1 [Compound 9-3]	251
C=CCn1ccnc(N2CCN(CCOc3ccc(F)cc3)CC2)c1=O [Compound 13-5]	501

1 = CN(C(=O)Cn1ccnc(NC2CCN(CCOc3ccccc3)CC2)c1=O)C1CCCCC1 [Compound 1-6]
2 = CN(C(=O)Cn1ccnc(NC2CCN(CCOc3ccccc3)CC2)c1=O)c1ccccc1 [Compound 1-9]
3 = O=c1c(N2CCN(CCOc3ccc(F)cc3)CC2)nccn1Cc1ccc2ccccc2c1 [Compound 11-8]
4 = O=c1c(N2CCN(CCOc3ccc(F)cc3)CC2)nccn1CCCc1ccccc1 [Compound 11-2]
Put the compounds in ascending order of IC50. // format: requested-order list of labels
1, 2, 3, 4
(1: 2 nM, 2: 3.16 nM, 3: 126 nM, 4: 631 nM)

----------
Target Under Test: hα2C receptor (Homo sapiens, UniProt P18825)
Construct: expressed in transfected cells
Experiment: Radioligand binding experiment for α2C-adrenoceptor ([3H]-raulwolscine, CHO cell membranes)
Condition Set: [3H]raulwolscine 1 nM, membranes of CHO cells transfected with human α2C receptor; read-out: h-α2C pIC50 (converted)
Quantity: IC50 (nM)

Below, 3 molecules whose answers are already recorded.
O=c1[nH]ccnc1N1CCN(CCOc2ccc(F)cc2)CC1	251
C#CCN(C)C(=O)Cn1ccnc(NC2CCN(CCOc3ccccc3)CC2)c1=O	12.6
O=c1c(N2CCN(CCOc3ccc(F)cc3)CC2)nccn1C/C=C/c1ccccc1	200

I = O=c1c(NC2CCN(CCOc3ccccc3)CC2)nccn1Cc1ccc2ccccc2c1
II = O=c1c(N2CCN(CCOc3ccc(F)cc3)CC2)nccn1Cc1ccc(-c2ccccc2)cc1
III = O=C(Cn1ccnc(NC2CCN(CCOc3ccccc3)CC2)c1=O)NCCCc1ccccc1
IV = O=C(Cn1ccnc(N2CCN(CCOc3ccc(F)cc3)CC2)c1=O)c1ccccc1
V = NCCCn1ccnc(NC2CCN(CCOc3ccccc3)CC2)c1=O
Task field, ranking: reported IC50, descending order. # the answer lists labels in the order requested
II, IV, I, III, V
